These measurements were taken from ChEMBL document CHEMBL4715866.

Hi there, I'd appreciate the recorded IC50 for every entry that follows.
study target: Serine/threonine-protein kinase 17B (Homo sapiens)
measurement notes: Inhibition of N-terminal His-tagged STK17B kinase domain (25 to 329 residues) (unknown origin) expressed in Escherichia coli incubated for 90 mins by Kinase seeker split luciferase assay
I'd appreciate it if you included the unit after the number.

Asked: Give IC50 for the following compound: O=C(O)CSc1ncnc2cc(-c3cccs3)sc12
Given back: 63 nM

Asked: Give IC50 for the following compound: CCOC(=O)c1ccc(-c2cc3ncnc(SCC(=O)O)c3s2)cc1
Given back: 40 nM

Asked: Give IC50 for the following compound: CCc1ccc(-c2cc3ncnc(SCC(=O)O)c3s2)cc1
Given back: 41 nM

Asked: Give IC50 for the following compound: O=C(O)CSc1ncnc2cc(-c3ccccc3F)sc12
Given back: 60 nM

Asked: Give IC50 for the following compound: O=C(O)CSc1ncnc2cc(-c3ccc(Cl)c(Cl)c3)sc12
Given back: 92 nM

Asked: Give IC50 for the following compound: CC(C)c1ccc(-c2cc3ncnc(SCC(=O)O)c3s2)cc1
Given back: 59 nM

* * *

study target: Wee1-like protein kinase (Homo sapiens)
Sequence (P30291 whole entry): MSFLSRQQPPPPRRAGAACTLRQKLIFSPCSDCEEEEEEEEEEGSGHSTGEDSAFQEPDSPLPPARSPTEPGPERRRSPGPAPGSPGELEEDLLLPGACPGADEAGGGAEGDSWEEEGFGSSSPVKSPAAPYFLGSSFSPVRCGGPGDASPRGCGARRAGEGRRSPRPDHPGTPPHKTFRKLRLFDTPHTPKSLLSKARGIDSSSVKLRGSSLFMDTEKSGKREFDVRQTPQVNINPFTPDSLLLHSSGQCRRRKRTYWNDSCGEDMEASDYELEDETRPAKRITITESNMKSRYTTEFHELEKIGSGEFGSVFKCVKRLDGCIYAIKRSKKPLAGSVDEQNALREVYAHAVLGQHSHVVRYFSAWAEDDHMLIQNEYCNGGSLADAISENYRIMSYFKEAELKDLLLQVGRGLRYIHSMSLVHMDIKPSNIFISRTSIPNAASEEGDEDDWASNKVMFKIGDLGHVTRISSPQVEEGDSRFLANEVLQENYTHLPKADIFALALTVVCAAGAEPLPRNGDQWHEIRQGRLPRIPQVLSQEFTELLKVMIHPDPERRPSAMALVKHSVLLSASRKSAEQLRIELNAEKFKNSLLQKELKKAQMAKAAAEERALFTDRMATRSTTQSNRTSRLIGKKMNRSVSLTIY
readout type: Kd

Asked: Give Kd for the following molecule: O=C(O)CSc1ncnc2cc(-c3cc4ccccc4s3)sc12
Given back: > 10 µM

* * *

study target: Aurora kinase B (Homo sapiens)
Sequence (Q96GD4 whole entry): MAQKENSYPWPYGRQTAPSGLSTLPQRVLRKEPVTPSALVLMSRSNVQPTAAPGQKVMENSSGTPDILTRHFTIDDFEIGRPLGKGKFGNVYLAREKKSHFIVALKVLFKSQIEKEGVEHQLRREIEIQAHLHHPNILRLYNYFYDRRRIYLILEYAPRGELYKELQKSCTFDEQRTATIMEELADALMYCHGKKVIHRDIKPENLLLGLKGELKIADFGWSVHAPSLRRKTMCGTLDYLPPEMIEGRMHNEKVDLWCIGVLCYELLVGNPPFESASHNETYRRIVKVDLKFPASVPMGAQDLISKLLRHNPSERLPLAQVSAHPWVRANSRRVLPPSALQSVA
measurement notes: Binding affinity to human AURKB incubated for 2 hrs by nano-BRET assay based cellular target engagement assay
pIC50: −log10 of the molar value.
readout type: pIC50

Asked: Give pIC50 for the following compound: O=C(O)CSc1ncnc2cc(-c3cc4ccccc4s3)sc12
Given back: < 5.00

* * *

pKd: −log10 of the molar value.
readout type: pKd

Asked: Provide pKd, recorded with Serine/threonine-protein kinase 38-like (Homo sapiens), of O=C(O)CSc1ncnc2cc(-c3cc4ccccc4s3)sc12
Given back: < 5.00

* * *

study target: Homeodomain-interacting protein kinase 4 (Homo sapiens)
Sequence (Q8NE63 whole entry): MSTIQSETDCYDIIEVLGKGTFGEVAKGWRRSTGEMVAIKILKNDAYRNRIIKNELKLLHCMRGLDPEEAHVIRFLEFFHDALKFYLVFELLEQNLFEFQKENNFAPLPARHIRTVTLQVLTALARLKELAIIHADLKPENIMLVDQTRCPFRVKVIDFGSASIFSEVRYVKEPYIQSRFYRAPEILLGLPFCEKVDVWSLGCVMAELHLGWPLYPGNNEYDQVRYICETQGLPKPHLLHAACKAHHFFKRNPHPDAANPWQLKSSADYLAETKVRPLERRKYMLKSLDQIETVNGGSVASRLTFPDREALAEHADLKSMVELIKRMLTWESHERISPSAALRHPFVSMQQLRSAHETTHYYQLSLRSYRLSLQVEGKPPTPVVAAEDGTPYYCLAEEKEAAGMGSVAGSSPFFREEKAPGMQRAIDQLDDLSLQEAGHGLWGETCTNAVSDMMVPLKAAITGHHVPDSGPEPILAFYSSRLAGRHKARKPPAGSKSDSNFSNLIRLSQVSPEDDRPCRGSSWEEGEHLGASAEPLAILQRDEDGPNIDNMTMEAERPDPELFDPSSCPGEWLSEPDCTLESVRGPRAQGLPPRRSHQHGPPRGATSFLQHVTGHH
readout type: pKd
pKd (log units): -log10 of the concentration in mol/L.

Asked: Give pKd for the following compound: O=C(O)CSc1ncnc2sc(-c3cc4ccccc4s3)cc12
Given back: 6.54

* * *

A short record of IC50 observed with Serine/threonine-protein kinase 17B (Homo sapiens, UniProt O94768) follows.
Sequence (O94768 whole entry, the tested form may be a part): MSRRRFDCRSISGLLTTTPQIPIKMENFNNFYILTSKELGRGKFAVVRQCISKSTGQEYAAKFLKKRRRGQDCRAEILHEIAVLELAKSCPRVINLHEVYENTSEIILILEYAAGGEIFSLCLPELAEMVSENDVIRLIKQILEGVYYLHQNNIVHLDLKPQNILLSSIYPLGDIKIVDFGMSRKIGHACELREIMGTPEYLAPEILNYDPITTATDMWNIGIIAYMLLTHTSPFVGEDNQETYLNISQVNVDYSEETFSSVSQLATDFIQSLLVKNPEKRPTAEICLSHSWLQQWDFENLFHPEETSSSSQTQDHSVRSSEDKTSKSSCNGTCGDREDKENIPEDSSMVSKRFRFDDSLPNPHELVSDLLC

Asked: Give IC50 for the following molecule: CC(C)c1ccc(-c2cc3ncnc(SCC(=O)O)c3s2)cc1
Given back: 0.55 µM

Asked: Give IC50 for the following molecule: CCOC(=O)CNc1ncnc2cc(-c3ccc(SC)cc3)sc12
Given back: > 10 µM

Asked: Give IC50 for the following molecule: O=C(O)CSc1ncnc2cc(-c3ccc(C4CC4)cc3)sc12
Given back: 0.53 µM

Asked: Give IC50 for the following molecule: CCc1ccc(-c2cc3ncnc(SCC(=O)O)c3s2)cc1
Given back: 0.38 µM

Asked: Give IC50 for the following molecule: O=C(O)COc1ncnc2cc(-c3ccc(Cl)cc3)sc12
Given back: > 10 µM

Asked: Give IC50 for the following molecule: CCOC(=O)COc1ncnc2cc(-c3ccc(Cl)cc3)sc12
Given back: > 10 µM

Asked: Give IC50 for the following molecule: O=C(O)CSc1ncnc2cc(-c3cccc(OC(F)(F)F)c3)sc12
Given back: 0.5 µM

Asked: Give IC50 for the following molecule: O=C(O)CSc1ncnc2sc(-c3ccc(Cl)c(Cl)c3)cc12
Given back: > 10 µM

Asked: Give IC50 for the following molecule: CSc1ccc(-c2cc3ncnc(SCC(=O)O)c3s2)cc1F
Given back: 0.53 µM

Asked: Give IC50 for the following molecule: N#Cc1ccc(-c2cc3ncnc(SCC(=O)O)c3s2)cc1
Given back: 3.2 µM

Asked: Give IC50 for the following molecule: COc1ccc(-c2cc3c(SCC(=O)O)ncnc3s2)cc1
Given back: > 10 µM

Asked: Give IC50 for the following molecule: O=C(O)CSc1ncnc2cc(-c3ccc(OCc4ccccc4)cc3)sc12
Given back: > 10 µM

Asked: Give IC50 for the following molecule: CC(C)Sc1ccc(-c2cc3ncnc(SCC(=O)O)c3s2)cc1
Given back: > 10 µM

Asked: Give IC50 for the following molecule: CC(=O)c1ccc(-c2cc3ncnc(SCC(=O)O)c3s2)cc1
Given back: 1.5 µM

Asked: Give IC50 for the following molecule: COc1ccccc1-c1cc2c(SCC(=O)O)ncnc2s1
Given back: > 10 µM

Asked: Give IC50 for the following molecule: COc1ccccc1-c1cc2ncnc(SCC(=O)O)c2s1
Given back: 1.7 µM

Asked: Give IC50 for the following molecule: CSc1cccc(-c2cc3c(SCC(=O)O)ncnc3s2)c1
Given back: > 10 µM

Asked: Give IC50 for the following molecule: CC(=O)c1ccc(-c2cc3ncnc(SCC(=O)O)c3s2)cn1
Given back: > 10 µM

Asked: Give IC50 for the following molecule: CSc1ccc(-c2cc3c(SCC(=O)O)ncnc3s2)cc1
Given back: > 10 µM

Asked: Give IC50 for the following molecule: O=C(O)CSc1ncnc2cc(-c3ccc(Cl)cc3)sc12
Given back: 0.68 µM

Asked: Give IC50 for the following molecule: C[S+]([O-])c1ccc(-c2cc3ncnc(SCC(=O)O)c3s2)cc1 (centres undefined)
Given back: > 10 µM

Asked: Give IC50 for the following molecule: O=C(O)CSc1ncnc2cc(-c3cccs3)sc12
Given back: 0.65 µM

Asked: Give IC50 for the following molecule: CC(=O)Nc1ccc(-c2cc3ncnc(SCC(=O)O)c3s2)cc1
Given back: > 10 µM

Asked: Give IC50 for the following molecule: CSc1ccc(-c2cc3ncnc(SCC(N)=O)c3s2)cc1
Given back: > 10 µM

Asked: Give IC50 for the following molecule: C=Cc1ccc(-c2cc3ncnc(SCC(=O)O)c3s2)cc1
Given back: 0.12 µM

Asked: Give IC50 for the following molecule: CC(=O)Nc1cccc(-c2cc3ncnc(SCC(=O)O)c3s2)c1
Given back: > 10 µM

Asked: Give IC50 for the following molecule: O=C(O)CSc1ncnc2sc(-c3cc4ccccc4s3)cc12
Given back: > 10 µM

Asked: Give IC50 for the following molecule: COc1cccc(-c2cc3c(SCC(=O)O)ncnc3s2)c1
Given back: > 10 µM

Asked: Give IC50 for the following molecule: O=C(O)CSc1ncnc2cc(-c3ccc(N4CCOCC4)cc3)sc12
Given back: 0.72 µM

* * *

study target: Serine/threonine-protein kinase 38-like (Homo sapiens, UniProt Q9Y2H1)
Sequence (Q9Y2H1 whole entry): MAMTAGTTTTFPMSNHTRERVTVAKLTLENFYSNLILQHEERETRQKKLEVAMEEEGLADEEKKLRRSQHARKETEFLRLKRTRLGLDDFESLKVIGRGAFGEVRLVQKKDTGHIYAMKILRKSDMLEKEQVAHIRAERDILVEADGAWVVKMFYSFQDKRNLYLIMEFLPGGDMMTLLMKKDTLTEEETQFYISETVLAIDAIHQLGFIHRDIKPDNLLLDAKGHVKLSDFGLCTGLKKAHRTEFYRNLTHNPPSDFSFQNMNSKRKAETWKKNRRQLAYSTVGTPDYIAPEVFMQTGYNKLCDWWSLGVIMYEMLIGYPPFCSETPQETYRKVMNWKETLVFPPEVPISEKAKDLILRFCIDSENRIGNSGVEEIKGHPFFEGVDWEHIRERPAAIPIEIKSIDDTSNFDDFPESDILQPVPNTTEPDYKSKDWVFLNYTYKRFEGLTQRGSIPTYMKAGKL
measurement notes: Inhibition of human STK38L in presence of ATP at Km level
pIC50: −log10 of the molar value.
readout type: pIC50

Asked: Give pIC50 for the following compound: O=C(O)CSc1ncnc2cc(-c3cc4ccccc4s3)sc12
Given back: < 5.00

* * *

study target: Calcium/calmodulin-dependent protein kinase kinase 1 (Homo sapiens, UniProt Q8N5S9)
Sequence (Q8N5S9 whole entry): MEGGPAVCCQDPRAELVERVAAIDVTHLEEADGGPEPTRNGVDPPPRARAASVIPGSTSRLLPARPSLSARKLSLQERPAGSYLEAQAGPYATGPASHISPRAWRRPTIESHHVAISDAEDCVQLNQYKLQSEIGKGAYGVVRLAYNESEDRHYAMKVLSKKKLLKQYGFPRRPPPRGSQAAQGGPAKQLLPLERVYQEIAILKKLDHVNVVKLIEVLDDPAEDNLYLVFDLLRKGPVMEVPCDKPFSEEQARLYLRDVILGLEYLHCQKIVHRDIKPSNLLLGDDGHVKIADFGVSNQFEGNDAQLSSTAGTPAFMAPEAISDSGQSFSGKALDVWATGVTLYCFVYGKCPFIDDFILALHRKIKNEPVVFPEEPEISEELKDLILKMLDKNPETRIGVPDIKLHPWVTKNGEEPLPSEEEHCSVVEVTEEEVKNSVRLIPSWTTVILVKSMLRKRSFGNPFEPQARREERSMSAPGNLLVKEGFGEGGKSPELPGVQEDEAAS
measurement notes: Binding affinity to human CAMKK1 assessed as displacement of immobilized ligand by KINOMEscan scanMAX assay relative to control
readout type: Kd (nM)
Kindly answer with a numeric value in nM, unit omitted.

Asked: Give Kd for the following molecule: O=C(O)CSc1ncnc2cc(-c3cc4ccccc4s3)sc12
Given back: 49

* * *

study target: Calcium/calmodulin-dependent protein kinase kinase 1 (Homo sapiens)
measurement notes: Inhibition of human CAMKK1 in presence of ATP at Km level
readout type: pIC50
pIC50 (log units): -log10 of the concentration in mol/L.

Asked: Give pIC50 for the following compound: O=C(O)CSc1ncnc2cc(-c3cc4ccccc4s3)sc12
Given back: 5.28

* * *

study target: Calcium/calmodulin-dependent protein kinase kinase 2 (Homo sapiens)
Sequence (Q96RR4 whole entry): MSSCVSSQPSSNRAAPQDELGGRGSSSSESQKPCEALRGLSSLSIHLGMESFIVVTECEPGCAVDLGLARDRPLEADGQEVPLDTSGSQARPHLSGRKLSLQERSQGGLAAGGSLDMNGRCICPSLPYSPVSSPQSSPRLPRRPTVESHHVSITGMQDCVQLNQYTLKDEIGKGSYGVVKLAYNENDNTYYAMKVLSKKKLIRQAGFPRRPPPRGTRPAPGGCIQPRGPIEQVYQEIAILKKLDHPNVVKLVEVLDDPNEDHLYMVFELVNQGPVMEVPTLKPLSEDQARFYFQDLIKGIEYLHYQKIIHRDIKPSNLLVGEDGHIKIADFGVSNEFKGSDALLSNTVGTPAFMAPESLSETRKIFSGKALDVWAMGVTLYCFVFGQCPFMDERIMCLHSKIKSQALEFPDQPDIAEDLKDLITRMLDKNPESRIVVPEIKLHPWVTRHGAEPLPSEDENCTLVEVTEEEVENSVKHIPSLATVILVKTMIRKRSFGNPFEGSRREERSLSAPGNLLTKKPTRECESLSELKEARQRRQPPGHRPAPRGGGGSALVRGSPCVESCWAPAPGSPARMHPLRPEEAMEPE
measurement notes: Inhibition of human CAMKK2 in presence of ATP at Km level
readout type: IC50

Asked: Give IC50 for the following compound: O=C(O)CSc1ncnc2cc(-c3cc4ccccc4s3)sc12
Given back: > 10 µM
